# EXPERIMENTAL PROTOCOL: In vivo rat iv/po PK
# SETUP CONDITIONS: male, Sprague-Dawley, plasma; rat (SD), po 3.0 mg/kg
ENDPOINT LABEL: AUC(0-inf) (ng·h/mL)
Dear colleague, please return just the value in ng·h/mL, with no unit written.

# AUC(0-inf) (compound: Cc1nc(C)c2c(n1)sc1c(NCc3ccc(C(C)(C)O)cc3)nccc12 [22g] ) is 8410

----------
# EXPERIMENTAL PROTOCOL: In vivo dog iv/po PK
# SETUP CONDITIONS: male, beagle, dog, plasma, iv, 0.5 mg/kg, dog (beagle), iv 0.5 mg/kg; read-out: CLp
ENDPOINT LABEL: clearance

# clearance (compound: Cc1nc(C)c2c(n1)sc1c(NCc3ccc(C(C)(C)O)cc3)nccc12 [22g] ) is ~24 mL/min/kg

----------
What pEC50 was measured for each of the following?
# MEASURED ON: human M4 (hM4) (Homo sapiens)
# Construct: expressed in transfected cells
# Sequence (P08173 whole entry): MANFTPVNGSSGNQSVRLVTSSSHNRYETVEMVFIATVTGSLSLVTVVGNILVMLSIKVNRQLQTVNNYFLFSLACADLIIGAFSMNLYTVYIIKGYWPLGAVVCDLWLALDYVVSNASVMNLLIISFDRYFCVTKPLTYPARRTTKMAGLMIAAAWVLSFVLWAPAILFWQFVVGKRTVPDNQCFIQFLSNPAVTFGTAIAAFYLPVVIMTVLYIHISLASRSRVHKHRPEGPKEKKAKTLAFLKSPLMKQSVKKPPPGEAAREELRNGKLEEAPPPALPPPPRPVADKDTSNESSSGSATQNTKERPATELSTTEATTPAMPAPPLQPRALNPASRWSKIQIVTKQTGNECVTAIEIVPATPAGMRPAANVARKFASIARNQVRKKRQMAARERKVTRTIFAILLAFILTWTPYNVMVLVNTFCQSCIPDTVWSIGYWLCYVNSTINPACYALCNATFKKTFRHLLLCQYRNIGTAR
# EXPERIMENTAL PROTOCOL: Calcium mobilization assay, hM4/Gqi5-CHO cells, EC20 acetylcholine (PAM)
# Assay type: cell-based
# SETUP CONDITIONS: calcium mobilization, hM4/Gqi5-CHO cells, EC20 acetylcholine; read-out: hM4 EC50
# reply with the number alone; pEC50 is -log10 of concentration in mol/L

# pEC50 (compound: Cc1nc(C)c2c(n1)sc1c(C3CC3)nccc12 [23a] ) is 6.24

# pEC50 (compound: CCc1nc(C)c2c(n1)sc1c(NCc3ccc(C(C)(C)O)cc3)nccc12 [22p] ) is 6.11

# pEC50 (compound: Cc1nc(C)c2c(n1)sc1c(N3CCOCC3)ncnc12 [14b] ) is 5.25

# pEC50 (compound: Cc1nc(C)c2c(n1)sc1c(N3CCC(F)(F)C3)ncnc12 [14e] ) is 6.19

# pEC50 (compound: Cc1nc(C)c2c(n1)sc1c(N3CC4CC4C3)ncnc12 (stereo not shown) [14i] ) is 6.80

# pEC50 (compound: Cc1nc(C2CC2)nc2sc3c(NCc4ccc(C(C)(C)O)cc4)nccc3c12 [22o] ) is 5.85

# pEC50 (compound: Cc1nc(C)c2c(n1)sc1c(N3CCCC3)ncc(Cl)c12 [26b] ) is 6.16

# pEC50 (compound: COc1ccc(CNc2nccc3c2sc2nc(C)nc(C)c23)cc1F [22j] ) is 6.77

# pEC50 (compound: Cc1nc(C)c2c(n1)sc1c(CC(C)(C)C)nccc12 [23b] ) is 6.62

# pEC50 (compound: Cc1nc(C)c2c(n1)sc1c(N3CC4(C3)CC(F)(F)C4)ncnc12 [14h] ) is 7.00

# pEC50 (compound: Cc1nc(C)c2c(n1)sc1c(NCc3ccc(C(C)(C)O)cc3)ncc(C#N)c12 ) is 6.02

# pEC50 (compound: Cc1nc(C)c2c(n1)sc1c(N3CCCC3)ncnc12 [14g] ) is 6.54

# pEC50 (compound: Cc1nc(C)c2c(n1)sc1c(N3CCC3)ncnc12 [14d] ) is 5.85

# pEC50 (compound: Cc1nc(C)c2c(n1)sc1c(NC3CCCC3)ncnc12 [14f] ) is 6.25

# pEC50 (compound: Cc1nc(C)c2c(n1)sc1c(NC3CCCC3)nccc12 [22d] ) is 6.89

# pEC50 (compound: Cc1nc(C)c2c(n1)sc1c(N3CC4(COC4)C3)ncnc12 [14c] ) is 5.80

# pEC50 (compound: Cc1nc(C2CC2)nc2sc3c(N4CCCC4)nccc3c12 [22q] ) is 6.00

# pEC50 (compound: Cc1nc(C)c2c(n1)sc1c(NCc3ccc(C(C)(C)O)c(F)c3)nccc12 [22i] ) is 6.55
